Assay: protein stability index of a GFP-peptide fusion (yeast GPS) (PSI 1-4); higher = more stable; sorted into four equal gates, so the index is relative within each strain
Conditions: ubr1∆
Criterion: protein stability index meeting or surpassing 3. Met: 1 (yes). Not met: 0 (no).

Answered examples (10):
Exercise: Is reported protein stability index greater than or equal to 3 here: HGVSFKKRAPRAVKEIK [RPL31A]
Key: 1 (yes)

Exercise: Would you kindly repeat that for QANQVKRHSYAQSSHIR [RPS1A] ?
Key: 0 (no)

Exercise: Would you kindly repeat that for LFKRDCNQMENLLESIT [YCS4] ?
Key: 0 (no)

Exercise: Would you kindly repeat that for VDRSKYNIELPLPPRID [RPT1] ?
Key: 1 (yes)

Exercise: Would you kindly repeat that for AQLTLKRCKHFELGGEK [RPL42A] ?
Key: 0 (no)

Exercise: Would you kindly repeat that for TNFNEITNTDETITTKR [SWP82] ?
Key: 1 (yes)

Exercise: Would you kindly repeat that for IDIINKLILHAIHIFES [YML103C/NUP188] ?
Key: 0 (no)

Exercise: Would you kindly repeat that for SKLLREHGYQSRGFEVM [RPB2] ?
Key: 0 (no)

Exercise: Would you kindly repeat that for EVDKSKLITTYISLLKL [YDL116W/NUP84] ?
Key: 0 (no)

Exercise: Would you kindly repeat that for DSNYKWDLSVEDALYLG [PRE2] ?
Key: 1 (yes)

Further cases:
Exercise: Is reported protein stability index greater than or equal to 3 here: VGIDTHTATDIYQTLIA [SNF2]
Key: 0 (no)

Exercise: Would you kindly repeat that for KERSIVVGRTTRSNPPF [REC8] ?
Key: 0 (no)

Exercise: Would you kindly repeat that for LPNQFPLKIHRTPYLTS [SWI1] ?
Key: 0 (no)

###

Assay: protein stability index of a GFP-peptide fusion (yeast GPS) (PSI 1-4); higher = more stable; sorted into four equal gates, so the index is relative within each strain
Conditions: ubr1∆
outcome.measure: protein stability index
Hey, just send me the number, nothing else.

Examples from the recorded data:
Exercise: Could you share which protein stability index value was measured for RAYRIIRAHQTELTHHL [QCR7] ?
Key: 2.96

Exercise: Would you kindly repeat that for EEQLDLLSAILDPSKSK [MED11] ?
Key: 3.64

Exercise: Would you kindly repeat that for ALYVLRERIRKGLQIYQ [PRP8] ?
Key: 2.41

Exercise: Would you kindly repeat that for TSTNGDSENNEENSSSN [RGR1] ?
Key: 2.95

Exercise: Would you kindly repeat that for NTNLMNGVNVQIDQLNR [GRR1] ?
Key: 2.99

Further cases:
Exercise: Could you share which protein stability index value was measured for RKQRVKKKTKKELELER [SWI1] ?
Key: 2.2

Exercise: Would you kindly repeat that for QSKLKDVVEYLDKVINK [RPN8] ?
Key: 2.55

###

Documented protein stability index across a set of sequences
Assay: protein stability index of a GFP-peptide fusion (yeast GPS) (PSI 1-4); higher = more stable; sorted into four equal gates, so the index is relative within each strain
Settings: pdr5∆
Hey, just send me the number, nothing else.

Examples from the recorded data:
Exercise: Could you share which protein stability index value was measured for RFKYAPGTIVLYAERVQ [RPS3] ?
Key: 1.65

Exercise: Would you kindly repeat that for VLQNVFKLVSTPSSNSN [MED1] ?
Key: 1.67

Exercise: Would you kindly repeat that for ELTLAEQQVKEAEMAYV [SMC4] ?
Key: 3.1

Exercise: Would you kindly repeat that for CITKQDGFKIYDNEKTA [PUP2] ?
Key: 3.06

Exercise: Would you kindly repeat that for CNALIHIKFSAGTEANA [SRB4] ?
Key: 2.31

Exercise: Would you kindly repeat that for LPKYQTIQYDPPETKLP [SNF5] ?
Key: 2.96

Exercise: Would you kindly repeat that for QANQVKRHSYAQSSHIR [RPS1A] ?
Key: 2.62

Exercise: Would you kindly repeat that for AAVIALGFVLLRDYTTV [RPN2] ?
Key: 1.21

Further cases:
Exercise: Could you share which protein stability index value was measured for SPFFVLDEVDAALDITN [SMC1] ?
Key: 2.78

Exercise: Would you kindly repeat that for NVVEVMDMNEIEDKENS [RPT5] ?
Key: 2.58

Exercise: Would you kindly repeat that for VGKTVKQLIMESQEKYM [NSL1] ?
Key: 3.18

Exercise: Would you kindly repeat that for KCPGCLNITTVFSHAQT [RPS27A] ?
Key: 2.76

Exercise: Would you kindly repeat that for ISIKDNKLVMKSKFNKS [GAL11] ?
Key: 2.59

Exercise: Would you kindly repeat that for DDDINWQELARSTDEFN [RPT5] ?
Key: 3.21

Exercise: Would you kindly repeat that for DSEKHIDFAPTSPFGGA [RPS9A] ?
Key: 2.65
